Test: Primary qHTS for Huh7 cytotoxicity: counterscreen for inhibitors of MERS-S pseudotyped particle cell entry (AID 1479147)
Conditions: cell viability read-out; at 57.1 µM (top of the series) unless noted; series mostly up to 57.1 µM
Results filed as inconclusive are left out. Activity calls are given as the source filed them. Calls follow the shape of the full dose curve.
measurement type: outcome

These recorded examples may help you get a feel for the data.
Name the reported outcome value associated with the compound `CC(C)COC(=O)OCN1C(=O)CN(CCN2CC(=O)N(COC(=O)OCC(C)C)C(=O)C2)CC1=O`
inactive

And then `COc1ccc(C(C)(C)C)cc1CN[C@H]1C2CCN(CC2)[C@H]1C(c1ccccc1)c1ccccc1` , what is it?
inactive

And then `CC(=O)O[C@H]1CC[C@H]2[C@@H]3CC[C@H]4CC(=O)C=C(C)[C@]4(C)[C@H]3CC[C@]12C` , what is it?
inactive

And then `CC1(C)OC(=O)C(OCC2CC2)=C1c1ccc(S(C)(=O)=O)cc1` , what is it?
inactive

And then `NC(N)=NCc1cccc(I)c1` , what is it?
inactive

And then `CCc1ccc(Cc2ccc3c(c2)[C@]2(OC3)O[C@H](CO)[C@@H](O)[C@H](O)[C@H]2O)cc1` , what is it?
inactive

And then COc1ccc(C2(C#N)CCC(C(=O)O)CC2)cc1OC1CCCC1 (stereo not given) , what is it?
inactive

And then `CC(C)(C)c1nc(-c2cccc(NS(=O)(=O)c3c(F)cccc3F)c2F)c(-c2ccnc(N)n2)s1` , what is it?
inactive

Turning now to a further compound:
Name the reported outcome value associated with the compound `CS(=O)(=O)c1ccc(C2=C(c3ccccc3)C(=O)OC2)cc1`
inactive

---

Target: Luciferin 4-monooxygenase (Photinus pyralis) (UniProt P08659)
Test: Primary firefly luciferase (FLuc) qHTS assay for identification of artifact compounds. (AID 1845220); also: nearly all actives have a fitted effect of over 60% in size
Conditions: purified firefly luciferase, luminescence, 5 min; at 54.1 µM (top of the series) unless noted; series mostly up to 54.1 µM
The source made the active and inactive calls. Calls follow the shape of the dose curve; as a rule, active = well fitted inhibition curve with a large enough effect; inconclusive = small, poorly fitted or top-dose-only effect; inactive = flat fitted curve, though single readings scatter.
measurement type: outcome

Name the reported outcome value associated with the compound Cc1sc2c(c1C)C(c1ccc(Cl)cc1)=NC(CC(=O)OC(C)(C)C)c1nnc(C)n1-2 (centres undefined)
inactive

And then `CN1CCc2cc3c(cc2[C@H]1[C@@H]1OC(=O)c2c1ccc1c2OCO1)OCO3` , what is it?
inactive

And then `C=C1CC[C@H]2[C@@H](/C=C(\C)C(=O)[C@@]3(OC(C)=O)C[C@H](C)[C@H](OC(=O)c4ccccc4)[C@@H]3[C@H]1OC(C)=O)C2(C)C` , what is it?
inactive

And then COC1CC(O[C@H]2CC[C@]3(C)C4CC[C@]5(C)[C@@H](C6=CC(=O)OC6)[C@@H](OC(C)=O)C[C@]5(O)C4CC[C@@H]3C2)OC(C)C1O (some centres undefined) , what is it?
inactive

---

Each entry below carries its recorded max response.
Assay: qHTS Assay for Lipid Storage Modulators (AID 1519)
Conditions: Drosophila S3 cells, BODIPY lipid droplet/cell ratio, laser cytometry; measured here: lipid channel max response; cells loaded with oleic acid
Results filed as inconclusive are left out.
The number alone won't do; follow it with the unit.

These recorded examples may help you get a feel for the data.
Name the reported max response value associated with the compound `O=C1C[C@@H](c2ccc(O)cc2)Oc2cc(O)cc(O)c21`
-14.1%

And then CCN1C[C@]2(C)CC[C@H](O)[C@@]34C5C[C@@H]6[C@@H](OC)C[C@@](O)(C5[C@H]6O)[C@@H](CC23)[C@@H]14 (stereo partly drawn) , what is it?
-11%

And then `c1ccc(C[C@@H](c2ccccc2)N2CCCCC2)cc1` , what is it?
-18.1%

And then `NC[C@@H](CC(=O)O)c1ccc(Cl)cc1` , what is it?
10.6%

And then `Oc1c(Cl)c(Cl)c(Cl)c(Cl)c1Cl` , what is it?
-7.5%

And then `CC(C)(C)NC[C@@H](O)COc1cccc2[nH]c(C#N)cc12` , what is it?
-17.5%

And then `OC1(c2ccc(Cl)cc2)CCN(Cc2c[nH]c3ccccc23)CC1` , what is it?
-25.1%

And then `Cl.Cl.Cl.Cl.Cl.Cl.N.N.N.N.NNNNN.NNNNN.O.O.[Ru].[Ru].[Ru]` , what is it?
-31.1%

Next:
Name the reported max response value associated with the compound C[N+]1(C)CCc2cc3c(cc2C1C1OC(=O)c2c1ccc1c2OCO1)OCO3 (stereo not drawn)
1.49%

---

Test system: JEG-3
Experiment: Primary qHTS to identify gynecologic anti-cancer compounds using libraries of approved drugs and bioactive compounds (AID 1345084); also: nearly all actives have a fitted effect of over 55% in size; as to activity change, negative = cytotoxicity: % is scaled to controls: 0 for no effect and ±100 for the full control effect
Conditions: Gynecologic cancer cell panel viability, ATPlite luminescence, 48 h; series mostly up to 57.5 µM
Results filed as inconclusive are left out. The source made the active and inactive calls. Calls come from the whole dose curve; as a rule, active = well fitted cell-killing curve with a large enough effect; inconclusive = small, poorly fitted or top-dose-only effect, or effect the other way; inactive = flat fitted curve, though single readings scatter.
measurement type: activity change, negative = cytotoxicity

Name the reported activity change, negative = cytotoxicity value associated with the compound `CC1(C)C(=O)N(c2ccc(C#N)c(C(F)(F)F)c2)C(=O)N1CCCCO`
inactive

And then C=C1C(=O)OC2/C=C(\COO)CC/C=C(\COC(C)=O)CC(OC(=O)C(C)CC)C12 (centres undefined) , what is it?
inactive

And then CO[C@H]1C[C@H](O[C@H]2CC[C@@]3(C)C(=CCC4C3CC[C@]3(C)[C@@H](C5=CC(=O)OC5)CC[C@]43O)C2)O[C@@H](C)[C@@H]1O[C@@H]1O[C@H](CO[C@@H]2O[C@H](CO)[C@@H](O)[C@H](O)[C@H]2O)[C@@H](O)[C@H](O)[C@H]1O (some centres undefined) , what is it?
16.2% [at 11.6 µM] (inactive)

And then COC(=O)[C@]12CCCC(C)(C)C1CCc1cc(C(C)C)c(O)c(O)c12 (some centres undefined) , what is it?
inactive

And then `C=C(C)[C@@]12O[C@@H]1[C@@]1(C)C(=CC2=O)CC[C@@H](OC(C)=O)[C@@H]1C` , what is it?
inactive

Next:
Name the reported activity change, negative = cytotoxicity value associated with the compound C[C@]12CC[C@H](O[C@@H]3O[C@H](CO)[C@@H](O)[C@H](O)[C@H]3O)CC1=CC[C@@H]1C2CC[C@]2(C)[C@@H](C3=CC(=O)OC3)CC[C@]12O (some centres undefined)
inactive

And then `CCOC(=O)C1(CCc2ccccc2)CCN(Cc2ccc(NC(C)=O)cc2)CC1` , what is it?
inactive

And then CO[C@@H]1[C@@H](O)[C@@H](O[C@H]2CC[C@]3(C=O)C4CC[C@]5(C)[C@@H](C6=CC(=O)OC6)CC[C@]5(O)[C@@H]4CC[C@H]3C2)O[C@@H](C)[C@H]1O[C@@H]1O[C@H](CO[C@@H]2O[C@H](CO)[C@@H](O)[C@H](O)[C@H]2O)[C@@H](O)[C@H](O)[C@H]1O (some centres undefined) , what is it?
-2.75% [at 11.6 µM] (inactive)

And then C/C=C(\C)C(=O)OC1C2C3(C)CCC(OC4CC(OC)C(OC5OC(C)C(O)C(OC)C5O)C(C)O4)CC3CCC23OC32CCC(C(C)=O)C2(C)C1OC(=O)/C(C)=C/C (centres undefined) , what is it?
7.67% [at 11.6 µM] (inactive)

And then `CCCCCn1cc(C(=O)Cc2ccccc2OC)c2ccccc21` , what is it?
inactive

And then CC12Cc3cn[nH]c3C=C1CCC1C2CCC2(C)C1CCC2(C)O (centres undefined) , what is it?
inactive

---

Test system: Hek293T
Assay: Primary qHTS to identify gynecologic anti-cancer compounds using libraries of approved drugs and bioactive compounds (AID 1345084); also: nearly all actives have a fitted effect of over 55% in size
Conditions: Gynecologic cancer cell panel viability, ATPlite luminescence, 48 h, control line for the selectivity index; series mostly up to 57.5 µM
Records with an inconclusive call do not appear. Calls of active or inactive are those of the source. Calls follow the shape of the dose curve; as a rule, active = well fitted cell-killing curve with a large enough effect; inconclusive = small, poorly fitted or top-dose-only effect, or effect the other way; inactive = flat fitted curve, though single readings scatter. Where a SMILES comes first, the peptide text is derived from it. [ ]: non-standard residue; d: D form. The star is where a group is joined. Dolaproine = CO[C@@H]([C@@H]1CCCN1)[C@@H](C)C(=O)O; Dil = CC[C@H](C)[C@H](NC)[C@@H](CC(=O)O)OC; Doe = c1ccc(C[C@H](N*)c2nccs2)cc1; Aib = CC(C)(N)C(=O)O
Give one outcome, nothing more. List: active, inactive

Kindly provide the recorded test outcome for the following molecule: CCC1(O)CCC2C3CCC4=CC(=O)CCC4C3CCC21CC (stereo not given)
inactive

And then `CNC(=O)c1cc(C#N)cc(C)c1NC(=O)c1cc(Br)nn1-c1ncccc1Cl` , what is it?
inactive

Next:
Kindly provide the recorded test outcome for the following molecule: `CO[C@H]1C[C@H](O[C@H]2CC[C@]3(C=O)[C@H]4CC[C@]5(C)[C@@H](C6=CC(=O)OC6)CC[C@]5(O)[C@@H]4CC[C@]3(O)C2)O[C@H](C)[C@H]1O`
active

And then CC[C@H](C)[C@@H]([C@@H](CC(=O)N1CCC[C@H]1[C@H](OC)[C@@H](C)C(=O)N[C@@H](Cc1ccccc1)c1nccs1)OC)N(C)C(=O)[C@@H](NC(=O)C(C)(C)N)C(C)C (H-[Aib]V[Dil][Dolaproine]-Doe) , what is it?
inactive

And then `O=C(OC[C@H]1O[C@@H](Oc2ccc(O)cc2CO)[C@H](O)[C@@H](O)[C@@H]1O)c1ccccc1` , what is it?
inactive

And then COC1CC(OC2CCC3(C=O)C(CCC4C3CCC3(C)C(C5=CC(=O)OC5)CCC43O)C2)OC(C)C1O (stereo not given) , what is it?
active

And then `OCc1nnc2n1-c1ccc(Cl)cc1C(c1ccccc1Cl)=NC2` , what is it?
inactive

And then `C=C1CC[C@H]2[C@@H](/C=C(\C)C(=O)[C@@]3(OC(C)=O)C[C@H](C)[C@H](OC(=O)c4ccccc4)[C@@H]3[C@H]1OC(C)=O)C2(C)C` , what is it?
inactive
